- target: COX-1 (Ovis aries)
- Construct: purchased Cayman
- Sequence (P05979 25-600): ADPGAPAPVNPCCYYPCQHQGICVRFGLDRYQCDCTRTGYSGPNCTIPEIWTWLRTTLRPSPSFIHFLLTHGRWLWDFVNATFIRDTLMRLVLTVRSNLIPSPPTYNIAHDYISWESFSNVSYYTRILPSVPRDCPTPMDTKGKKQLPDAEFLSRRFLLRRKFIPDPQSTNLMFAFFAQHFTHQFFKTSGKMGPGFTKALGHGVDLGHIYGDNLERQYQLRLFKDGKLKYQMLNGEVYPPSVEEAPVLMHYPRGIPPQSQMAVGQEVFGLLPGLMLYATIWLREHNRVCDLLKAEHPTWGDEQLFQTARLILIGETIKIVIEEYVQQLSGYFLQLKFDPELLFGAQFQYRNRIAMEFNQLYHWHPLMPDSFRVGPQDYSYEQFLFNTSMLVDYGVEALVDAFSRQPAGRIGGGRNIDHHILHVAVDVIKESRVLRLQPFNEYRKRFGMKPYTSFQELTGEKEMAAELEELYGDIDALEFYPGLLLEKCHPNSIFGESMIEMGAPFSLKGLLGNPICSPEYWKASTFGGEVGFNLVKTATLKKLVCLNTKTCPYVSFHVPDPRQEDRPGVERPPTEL
- test-summary: COX (ovine) colorimetric inhibitor screening assay, COX-1
- Assay type: biochemical
- assay-conditions: selectivity index
- Protocol: COX (ovine) Colorimetric Inhibitor Screening Assay (Cayman, Ann Arbor, MI, USA) was conducted to detect the peroxidase component of COX-1 and COX-2 according to the manufacturer’s instructions. The assay was performed in triplicate. Half maximal inhibitory concentration (IC50) data (µM) were expressed as mean ± SD.
reported-metric: SI (IC50 for COX-1/IC50 for COX-2)

{"compound": "O=C(Cc1c[nH]c2ccccc12)NNC(=S)Nc1ccc(-n2cccn2)cc1 [Compound 4e]", "target": "COX-1 (Ovis aries)", "qualifier-operator": ">", "value": 3.17}
{"compound": "O=C(Cc1c[nH]c2ccccc12)NNC(=S)Nc1ccc(Br)cc1 [Compound 4a]", "target": "COX-1 (Ovis aries)", "qualifier-operator": "=", "value": 0.13}
{"compound": "O=C(Cc1c[nH]c2ccccc12)NN=Cc1ccc(OCCN2CCOCC2)cc1 [Compound 3h]", "target": "COX-1 (Ovis aries)", "qualifier-operator": "=", "value": 0.76}
{"compound": "CC(=NNC(=O)Cc1c[nH]c2ccccc12)c1ccc(S(C)(=O)=O)cc1 [Compound 3f]", "target": "COX-1 (Ovis aries)", "qualifier-operator": "=", "value": 1.84}
{"compound": "O=C(Cc1c[nH]c2ccccc12)NNC(=S)Nc1ccc(OCc2ccccc2)cc1 [Compound 4g]", "target": "COX-1 (Ovis aries)", "qualifier-operator": ">", "value": 1.68}
{"compound": "O=C(Cc1c[nH]c2ccccc12)NNC(=S)Nc1ccc(C(F)(F)F)cc1 [Compound 4b]", "target": "COX-1 (Ovis aries)", "qualifier-operator": ">", "value": 1.63}
{"compound": "O=C(Cc1c[nH]c2ccccc12)NN=Cc1ccc(N2CCOCC2)cc1 [Compound 3b]", "target": "COX-1 (Ovis aries)", "qualifier-operator": "=", "value": 0.13}
